- assayed system: Bifunctional purine biosynthesis protein ATIC (Homo sapiens, UniProt P31939)
- Sequence (P31939 whole entry): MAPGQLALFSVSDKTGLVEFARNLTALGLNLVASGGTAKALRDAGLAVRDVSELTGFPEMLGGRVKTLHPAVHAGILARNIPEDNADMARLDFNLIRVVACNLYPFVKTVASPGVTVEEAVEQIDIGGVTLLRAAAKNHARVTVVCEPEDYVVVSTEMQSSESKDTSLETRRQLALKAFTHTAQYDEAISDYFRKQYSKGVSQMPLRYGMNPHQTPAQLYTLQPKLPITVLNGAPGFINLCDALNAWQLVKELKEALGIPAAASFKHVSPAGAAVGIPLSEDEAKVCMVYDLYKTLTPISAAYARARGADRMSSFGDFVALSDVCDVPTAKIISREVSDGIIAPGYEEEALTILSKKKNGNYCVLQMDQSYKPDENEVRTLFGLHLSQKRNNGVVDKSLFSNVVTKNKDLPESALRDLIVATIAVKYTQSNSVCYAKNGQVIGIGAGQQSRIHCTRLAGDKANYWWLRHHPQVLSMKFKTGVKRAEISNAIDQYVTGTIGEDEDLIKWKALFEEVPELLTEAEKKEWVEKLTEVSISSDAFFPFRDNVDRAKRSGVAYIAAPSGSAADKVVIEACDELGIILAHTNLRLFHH
- measurement notes: AICAR Tfase Inhibition Assay
- protocol conditions: pH 7.5; 22 °C
Would you mind telling me the reported pIC50 of each entry?
Conceptually, pIC50 converts a concentration in mol/L into minus its log10.

Field pIC50 (Bifunctional purine biosynthesis protein ATIC (Homo sapiens, UniProt P31939)), entry "O=S(=O)(O)Oc1c(-c2sc3c(ccc4cccc(Cl)c43)c2OS(=O)(=O)O)[nH]c2ccc(Br)cc12" : 5.85

Test item "Cc1[nH]n(-c2cc(Cl)c(S(=O)(=O)O)cc2Cl)c(=O)c1N=Nc1ccc(S(=O)(=O)O)cc1" ; Bifunctional purine biosynthesis protein ATIC (Homo sapiens, UniProt P31939); reported pIC50 was 4.70

Item "Cc1ccc(OS(=O)(=O)c2ccc(N=Nc3c(C)[nH]n(-c4ccc(Cl)cc4S(=O)(=O)O)c3=O)cc2)cc1" ; assay system Bifunctional purine biosynthesis protein ATIC (Homo sapiens, UniProt P31939); pIC50 reported as 5.48

Observed pIC50 on Bifunctional purine biosynthesis protein ATIC (Homo sapiens, UniProt P31939), entry "Cc1[nH]n(-c2ccc(S(=O)(=O)O)cc2)c(=O)c1N=Nc1cc(Cl)cc(S(=O)(=O)O)c1C(=O)O" , equals 4.38

Response field pIC50 (Bifunctional purine biosynthesis protein ATIC (Homo sapiens, UniProt P31939)) for item "Cc1cc(N=Nc2c(C)[nH]n(-c3ccc(S(=O)(=O)O)cc3)c2=O)ccc1S(=O)(=O)Nc1ccccc1" : 4.94

Where do the numbers come from? From BindingDB's records for doi:10.1074/jbc.M406801200.
